Tested on: SF-539
Experiment: NCI tumour cell line growth inhibition, 48 h
The source made the active and inactive calls. Rule as the data show it: active = GI50 up to about 1.1 µM and inactive = higher.
property name: GI50

Prompt: Lab note: need GI50 for COC(=O)N/N=c1\cc(C(=O)Nc2ccc(C)c(C)c2)oc2cc(O)ccc12 on SF-539, anyone have it?
Completion: > 100 µM (inactive)

Prompt: Form field - read-out: GI50; system: SF-539; submitted item: CCN(CC)CCNC(=O)c1cccc2cc3ccccc3nc12
Completion: 4.49 µM (inactive)

Prompt: Given the entry CC(=O)OCC1OC(N=[N+]=[N-])C(OC(C)=O)C(OC(C)=O)C1OC1OC(COC(C)=O)C(OC(C)=O)C(OC(C)=O)C1OC(C)=O (stereo unspecified) , what GI50 was observed with SF-539?
Completion: 58.6 µM (inactive)

Prompt: Value wanted: GI50 (SF-539) of entry COc1ccc2c(c1)C/C(=C\c1ccc(O)c(OC)c1)C2=O
Completion: > 100 µM (inactive)

Prompt: Record lookup: for SF-539, what GI50 belongs to C[C@@]1(CBr)C[C@@](C)(/C=C/Cl)[C@@H](Cl)C[C@H]1Cl ?
Completion: 14.6 µM (inactive)

Prompt: Recorded GI50 for O=C1C(=Cc2cccc(Cl)c2)N=C(c2ccccc2)N1n1c(-c2ccccc2)nc2ccccc2c1=O with SF-539, please?
Completion: 27.9 µM (inactive)

----------
Test system: RXF 393
Assay: NCI tumour cell line growth inhibition, 48 h
Active and inactive are the calls of the source. Rule as the data show it: active = GI50 up to about 1.1 µM and inactive = higher. Where a SMILES comes first, the peptide text is derived from it. The star is where a group is joined. OSu = O=C1CCC(=O)N1O*; OBn = c1ccc(CO*)cc1; Bn = c1ccc(C*)cc1
property name: GI50

Prompt: # query: GI50 of entry CC(C)CC(NC(=O)C(N)CCC(=O)OCc1ccccc1)C(=O)NC(COCc1ccccc1)C(=O)NC(Cc1ccccc1)C(=O)ON1C(=O)CCC1=O (stereo unspecified) (H-E(OBn)LS(Bn)F-OSu; configuration not given here)
Completion: 21.8 µM (inactive)

Prompt: Look up GI50 for this compound: Cn1c(S)nnc1-c1csc(-c2ccc(Cl)cc2)n1
Completion: 19 µM (inactive)

Prompt: What does the record list as GI50 for NC(=O)N/N=C(\Cc1nc2ccc(C(=O)c3ccccc3)cc2nc1O)C(=O)Nc1ccc(Br)cc1 ?
Completion: > 100 µM (inactive)

Prompt: Fill blank: measured GI50 of the compound Oc1ccc(Cn2c(-c3ccc(O)cc3)nc3ccccc32)cc1 is ____.
Completion: > 100 µM (inactive)

Prompt: Could you share which GI50 value was measured for CCOC(=O)CSc1nc(-c2ccc(OC)cc2)c(C#N)c(=O)[nH]1 ?
Completion: > 100 µM (inactive)

Prompt: For the compound CC(=O)/C(=C\NC(N)=S)C(=O)Nc1ccccc1C , what GI50 is on record?
Completion: > 100 µM (inactive)

----------
System: HCT-15
Give measured GI50 for each item. Keep answers brief.

Prompt: // GI50 lookup, key: CC1CC(=O)CC[C@@H]1OCc1ccccc1 (stereo partly drawn)
Completion: > 100 µM

Prompt: State the recorded GI50 for this entry: CCOC(=O)CNC1=NNS(=O)(=O)c2ccccc21
Completion: > 100 µM

Prompt: What measured GI50 goes with O=C(O)c1ccccc1/C=N\N(CCO)C1=NCCN1 ?
Completion: > 100 µM

Prompt: Would you kindly share the measured GI50 for C/C1=C\CC[C@@]2(C)O[C@@H]2C[C@@H]2[C@H](C/C(C)=C/CC1)OC(=O)C21CCN=N1 (stereo partly drawn) ?
Completion: > 75 µM

Prompt: Entry Cc1ccc(S(=O)(=O)N2CCNCCN(S(=O)(=O)c3ccc(C)cc3)CCN(S(=O)(=O)c3ccc(C)cc3)CC2)cc1 : reported GI50 = ?
Completion: > 100 µM

Prompt: // query GI50 value for entry Fc1cccc(C2SCc3nc4cc5ccccc5cc4n32)c1 (stereo not drawn)
Completion: > 100 µM

Prompt: What does the record list as GI50 for COc1ccc(-c2c(C3=NCCCN3)nnn2-c2ccccc2)cc1 ?
Completion: > 100 µM

Prompt: Given the entry COC(=O)c1c2c(cc3c1CC1(Cc4ccc(C(C)=O)cc4C1)C3)CCC2 (stereo not drawn) , report its measured GI50.
Completion: 31.8 µM

Prompt: Recorded GI50 for Nn1c(S)nnc1N/N=C1/C(=O)Nc2c(Cl)cc(Cl)cc21 , please?
Completion: > 100 µM

Prompt: Consider the compound shown here: CNc1ncnc(Sc2nc(N)nc3[nH]cnc23)c1[N+](=O)[O-] What is its recorded GI50?
Completion: 1.54 µM

Prompt: Look up GI50: COc1ccc(OC)c(/C=C2/C(=O)N/C(=N\C(C)=O)N2C)c1
Completion: > 100 µM

Prompt: Dear colleague, I am looking for the recorded GI50 of the following compound: COc1cc(OC)c2c(=O)cc(-c3ccc(OC)c(OC)c3OC)oc2c1
Completion: > 100 µM

Prompt: Look up GI50: CCOC(CN=C=S)OCC
Completion: > 10 µM

Prompt: Looking for the measured GI50 of Cc1c2c(OCC3CCCCO3)nn(C)c(=O)c2c(C)n1-c1ccccc1 (stereo not drawn) , can you help?
Completion: 17.1 µM

Prompt: // lookup GI50 for CCCCCCCCOP(=O)(O)OP(=O)(O)OCC1OC(n2ccc(N)nc2=O)C(O)C1O (stereo not drawn)
Completion: > 100 µM

Prompt: I have this compound here, CCOC(=O)/C=C(/C(=O)OCC)n1cc(C)c(=O)n(Cc2cnnn2CCCCOC(C)=O)c1=O , and I need its recorded GI50.
Completion: 12.6 µM

Prompt: Would you kindly share the measured GI50 for Cc1ccc(S(=O)(=O)C2=C(C(C)C)N=NC2(C)C)cc1 ?
Completion: 73.6 µM

Prompt: Sample COC(=O)C1=C(OC(=O)/C(=C/c2ccccc2)c2ccc([N+](=O)[O-])cc2)C(C(=O)OC)[C@@]2(O)[C@@H](C(=O)OC)[C@H](C)C[C@@H]1[C@@H]2C(=O)OC (stereo partly drawn) — what was its GI50?
Completion: > 100 µM

Prompt: Reported GI50 for S=C1SCN(C2CCCCCCCCCCC2)CN1C1CCCCCCCCCCC1 : what is it?
Completion: > 100 µM

Prompt: Report GI50 for CC(C)(C)OC(=O)NCC(=O)N1CCCN(C(=O)CNC(=O)OC(C)(C)C)CC1 please.
Completion: > 100 µM

Prompt: For the compound N#CC1(C#N)C=CC(=C2OCC3CCCN23)C=C1 (stereo not drawn) , what GI50 is on record?
Completion: > 100 µM

Prompt: Record request: GI50 value, item O=C(CN1CCOCC1)CC(O)(C(F)(F)F)C(F)(F)F
Completion: 55.5 µM

Prompt: Looking for the measured GI50 of O=c1[nH]c2cccc([N+](=O)[O-])c2c(=O)n1-c1ccc(Cl)cc1 , can you help?
Completion: 12.1 µM

Prompt: Looking for the measured GI50 of COc1cccc(NC(=O)CC(=O)Nc2cccc(OC)c2)c1 , can you help?
Completion: > 100 µM

Prompt: Reported GI50, compound CC1OC(n2ccc(=O)[nH]c2=O)C=C(OC(=O)c2ccccc2)C1=O (stereo not drawn) : ____
Completion: > 100 µM

Prompt: Field request: GI50 | item: COc1ccc2c([nH]c3cc(O)c(C)cc32)c1C=O
Completion: 14.8 µM

Prompt: # input compound: O=C1N[C@@H]2c3c(Br)sc(Br)c3C(=O)[C@@H]2N1 ; wanted: its GI50
Completion: 3.16 µM

Prompt: Returns the measured GI50 for the input compound. Input: COc1cc(OC)c(/C=C/c2cnc3ccccc3n2)c(OC)c1
Completion: > 10 µM

Prompt: Consider the compound shown here: CCN(CC)CCNC(=O)c1cccc2cc3ccccc3nc12 What is its recorded GI50?
Completion: 4.47 µM

Prompt: # input compound: Cc1cc2ncn(CC(=O)O)c2cc1C ; wanted: its GI50
Completion: > 100 µM

Prompt: Return reported GI50; argument: O=C1OC(c2ccccc2)=N/C1=C\c1cccnc1
Completion: > 100 µM

Prompt: Entry O=C1C=C/C(=N\c2ccc3c(c2)C(Br)c2ccccc2-3)O1 (stereo not drawn) has what GI50?
Completion: > 100 µM

Prompt: Recorded GI50 for O=C(O)CCC(N/N=N/c1ccc(-c2nc3ccccc3[nH]2)cc1)C(=O)O (stereo not drawn) , please?
Completion: 34 µM

Prompt: Endpoint output: GI50 of O=C(c1ccc(F)cc1)c1cccc(C(=O)c2ccc(F)cc2)n1 . Value?
Completion: > 100 µM

Prompt: Could you share which GI50 value was measured for CC(CSC(=N)N)C(N)=O (stereo not drawn) ?
Completion: > 100 µM

Prompt: Entry under review: COc1cc(C2C3=C(COC3=O)Oc3cc4c(cc32)OCO4)ccc1OC(C)=O (stereo not drawn) . Reported GI50?
Completion: 0.468 µM

Prompt: # lookup: GI50 of CCCCCCCCC1=CCC(CN(C)C)C1=O (stereo not drawn)
Completion: 17.8 µM

Prompt: Entry O=C(C[n+]1ccccc1)NNC(=O)/C(=C/c1ccc2c(c1)OCO2)NC(=O)c1ccccc1 has what GI50?
Completion: 28.6 µM
